Where do the numbers come from? From patent US20240351986A1.

target: T1, Recombinant human CDK9/cyclin T1 (Homo sapiens, UniProt P50750); assay: CDK9 enzyme inhibitory activity (ADP-Glo kinase assay); assay type: biochemical; conditions: CDK9 enzyme activity; compound 10 nM; average of two independent repeats; read-out: Inhibition rate at different concentrations (%) 10 nM
T1 construct: purchased Carna bioscience 04-110
T1 sequence (P50750 whole entry): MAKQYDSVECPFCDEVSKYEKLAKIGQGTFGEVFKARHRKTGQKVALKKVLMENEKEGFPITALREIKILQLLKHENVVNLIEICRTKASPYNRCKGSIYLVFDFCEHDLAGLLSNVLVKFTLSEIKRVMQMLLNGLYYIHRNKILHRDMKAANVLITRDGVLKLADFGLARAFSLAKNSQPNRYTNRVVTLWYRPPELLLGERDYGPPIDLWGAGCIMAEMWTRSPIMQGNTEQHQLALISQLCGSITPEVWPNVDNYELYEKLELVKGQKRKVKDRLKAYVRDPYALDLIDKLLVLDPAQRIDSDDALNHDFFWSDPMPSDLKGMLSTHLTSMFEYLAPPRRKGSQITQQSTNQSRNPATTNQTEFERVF
T1 sequence (O60563 whole entry partner): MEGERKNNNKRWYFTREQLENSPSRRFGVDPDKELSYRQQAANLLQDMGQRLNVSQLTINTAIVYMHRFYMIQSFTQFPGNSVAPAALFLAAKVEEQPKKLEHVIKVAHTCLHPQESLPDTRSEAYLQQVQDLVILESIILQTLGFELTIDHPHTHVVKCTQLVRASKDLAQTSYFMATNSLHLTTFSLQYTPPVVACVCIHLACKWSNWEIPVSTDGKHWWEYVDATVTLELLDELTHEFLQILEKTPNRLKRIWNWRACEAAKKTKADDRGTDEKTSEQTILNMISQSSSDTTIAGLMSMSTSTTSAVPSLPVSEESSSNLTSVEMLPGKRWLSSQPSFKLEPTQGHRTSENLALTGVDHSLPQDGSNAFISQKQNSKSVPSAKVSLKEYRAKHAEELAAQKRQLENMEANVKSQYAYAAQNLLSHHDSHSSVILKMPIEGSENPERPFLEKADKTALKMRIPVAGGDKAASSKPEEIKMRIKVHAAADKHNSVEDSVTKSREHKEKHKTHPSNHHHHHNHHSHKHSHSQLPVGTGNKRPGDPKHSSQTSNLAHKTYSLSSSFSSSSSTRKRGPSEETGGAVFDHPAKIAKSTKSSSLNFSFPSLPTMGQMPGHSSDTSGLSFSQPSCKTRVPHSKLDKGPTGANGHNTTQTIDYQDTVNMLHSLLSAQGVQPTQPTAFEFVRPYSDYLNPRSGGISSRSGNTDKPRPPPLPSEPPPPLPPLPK
value kind: inhibition at 0.01 µM (%)

{"compound": "Cn1cc(-c2ccnc(NC(=O)NC3CCC(N)CC3)c2)cn1 (centres unmarked)", "numeric result": -17.5}
{"compound": "NC1CCC(NC(=O)Nc2cc(-c3ccc(F)c4ccoc34)ccn2)CC1 (centres unmarked)", "numeric result": 23.1}
{"compound": "CN(C)CC(=O)NC1CCC(NC(=O)Nc2cc(-c3cnn4c3CC(C)(C)C4)c(Cl)cn2)CC1 (centres unmarked)", "numeric result": 54}
{"compound": "COCCNC1CCCC(NC(=O)Nc2cc(-c3cnn4c3CC(C)(C)C4)c(Cl)cn2)C1 (centres unmarked)", "numeric result": 48}
{"compound": "CC(=O)NC1CC(NC(=O)Nc2cc(-c3cnn4c3CC(C)(C)C4)c(Cl)cn2)C1 (centres unmarked)", "numeric result": 51}
{"compound": "CC(=O)NC1CCC(NC(=O)Nc2cc(-c3cnn4c3CC(C)(C)C4)c(C)cn2)CC1 (centres unmarked)", "numeric result": 39.7}
{"compound": "CC1(C)Cc2c(-c3cc(NC(=O)NC4CCC(N5CCOCC5)CC4)ncc3Cl)cnn2C1 (centres unmarked)", "numeric result": 58.9}
{"compound": "CC(=O)NC1CCC(NC(=O)Nc2cc(-c3cnc4n3CC(C)(C)C4)c(Cl)cn2)CC1 (centres unmarked)", "numeric result": 50.1}

====

target: T1, Recombinant human CDK9/cyclin T1 (Homo sapiens, UniProt P50750); assay: CDK9 enzyme inhibitory activity (ADP-Glo kinase assay); type: biochemical; details: CDK9 enzyme activity; compound 100 nM; average of two independent repeats; read-out: Inhibition rate at different concentrations (%) 100 nM
T1 construct: purchased Carna bioscience 04-110

{"molecule": "NC1CCC(NC(=O)Nc2cc(-c3ccc(F)c4ccoc34)ccn2)CC1 (centres unmarked)", "value unit": "%", "inhibition at 0.1 µM": 61.3}
{"molecule": "CC1(C)Cc2c(-c3cc(NC(=O)NC4CCCNCC4)ncc3Cl)cnn2C1 (centres unmarked)", "value unit": "%", "inhibition at 0.1 µM": 79.5}
{"molecule": "COc1cc(F)ccc1-c1cc(NC(=O)NC2CCC(NCCC(F)(F)F)CC2)ncc1Cl (centres unmarked)", "value unit": "%", "inhibition at 0.1 µM": 82.5}
{"molecule": "COCCNC1CCC(NC(=O)Nc2cc(-c3cnn4c3CC(C)(C)C4)c(Cl)cn2)CC1 (centres unmarked)", "value unit": "%", "inhibition at 0.1 µM": 69}
{"molecule": "CC1(C)Cc2c(-c3cc(NC(=O)NC4CCC(NC5COC5)CC4)ncc3Cl)cnn2C1 (centres unmarked)", "value unit": "%", "inhibition at 0.1 µM": 69.3}
